Reported melting point values for a set of compounds
ENDPOINT NAME: melting point

- COMPOUND: "CC(=O)NCc1ccc(Cl)c(NC(=O)C2C(c3cc(Cl)cc(Cl)c3)C2(Cl)Cl)c1 (stereo not drawn)"
  ENDPOINT NAME: "melting point"
  RESULT: "101 to 105 °C"
- COMPOUND: "CC(C)C(=O)NCc1ccc(Cl)c(NC(=O)C2C(c3cc(Cl)cc(Cl)c3)C2(Cl)Cl)c1 (stereo not drawn)"
  ENDPOINT NAME: "melting point"
  RESULT: "187 to 191 °C"
- COMPOUND: "CC(=O)NCc1nc(NC(=O)C2C(c3ccc(F)c(Cl)c3)C2(Cl)Cl)ccc1Br (stereo not drawn)"
  ENDPOINT NAME: "melting point"
  RESULT: "170 to 173 °C"
- COMPOUND: "O=C(CC(F)(F)F)NCc1nc(NC(=O)C2C(c3ccc(F)c(Cl)c3)C2(Cl)Cl)ccc1Br (stereo not drawn)"
  ENDPOINT NAME: "melting point"
  RESULT: "184 to 187 °C"
- COMPOUND: "CN(Cc1cc(NC(=O)C2C(c3cc(Cl)cc(Cl)c3)C2(F)F)ccc1Cl)C(=O)C1CC1 (stereo not drawn)"
  ENDPOINT NAME: "melting point"
  RESULT: "151 to 155 °C"
- COMPOUND: "O=C(NCc1nc(NC(=O)C2C(c3ccc(F)c(Cl)c3)C2(Cl)Cl)ccc1Br)C1CC1 (stereo not drawn)"
  ENDPOINT NAME: "melting point"
  RESULT: "152 to 155 °C"
